// reported CC50 at 3 days for each item listed
# procedureSummary: In vitro cytotoxicity assay, MRC-5SV2 cells (resazurin)
# Assay type: cell-based, human
# conditionInfo: human, MRC-5SV2 cells (human lung fibroblasts); cytotoxicity; read-out: CC50 against MRC-5
# Experimental: Briefly, 1.5 × 10^5 cells/mL cells were cultured with compound dilutions at 37 °C and with 5% CO2. Cell growth was compared to untreated-control wells (100% cell growth) and medium-control wells (0% cell growth). After 3 days incubation, cell viability was assessed fluorometrically after addition of 50 μL resazurin per well. […] The results were expressed as % reduction in cell growth/viability compared to control wells and an IC50 value was determined.

>  <smilesCode>
O=C(/C=C/c1cccc(Cl)c1)c1ccc(NC(=O)c2cn(-c3ccccc3)nc2-c2ccccc2)cc1

>  <unitLabel>
µM

>  <CC50 at 3 days>
6.2

$$$$
>  <smilesCode>
COc1cccc(/C=C/C(=O)c2ccc(NC(=O)c3cn(-c4ccccc4)nc3-c3ccccc3)cc2)c1

>  <unitLabel>
µM

>  <CC50 at 3 days>
10.7

$$$$
>  <smilesCode>
O=C(/C=C/c1cccnc1)c1ccc(NC(=O)c2cn(-c3ccccc3)nc2-c2ccccc2)cc1

>  <unitLabel>
µM

>  <CC50 at 3 days>
0.26

$$$$

###

# System: Trypanosoma brucei brucei (blood stream trypomastigotes)
# procedureSummary: Drug susceptibility resazurin assay, T. b. brucei
# conditionInfo: 72 h, read-out: IC50 T. b. brucei
pIC50: −log10 of the molar value.

>  <smilesCode>
O=C(/C=C/c1ccc(F)cc1)c1ccc(NC(=O)c2cn(-c3ccccc3)nc2-c2ccccc2)cc1

>  <rel>
=

>  <pIC50>
6.11

$$$$
>  <smilesCode>
O=C(C=Cc1ccccc1)c1ccc(NC(=O)c2cn(-c3ccccc3)nc2-c2ccccc2)cc1

>  <rel>
=

>  <pIC50>
6.11

$$$$
>  <smilesCode>
O=C(/C=C/c1ccc(Br)cc1)c1ccc(NC(=O)c2cn(-c3ccccc3)nc2-c2ccccc2)cc1

>  <rel>
=

>  <pIC50>
5.95

$$$$
>  <smilesCode>
CC(=O)c1ccc(NC(=O)c2cn(-c3ccccc3)nc2-c2ccccc2)cc1

>  <rel>
<

>  <pIC50>
4.19

$$$$
>  <smilesCode>
O=C(O)c1cn(-c2ccccc2)nc1-c1ccccc1

>  <rel>
<

>  <pIC50>
4.19

$$$$
>  <smilesCode>
O=C(/C=C/c1cccs1)c1ccc(NC(=O)c2cn(-c3ccccc3)nc2-c2ccccc2)cc1

>  <rel>
=

>  <pIC50>
4.88

$$$$
>  <smilesCode>
O=C(/C=C/c1ccc(Cl)c(Cl)c1)c1ccc(NC(=O)c2cn(-c3ccccc3)nc2-c2ccccc2)cc1

>  <rel>
=

>  <pIC50>
5.33

$$$$
>  <smilesCode>
O=C(/C=C/c1cccc([N+](=O)[O-])c1)c1ccc(NC(=O)c2cn(-c3ccccc3)nc2-c2ccccc2)cc1

>  <rel>
=

>  <pIC50>
5.17

$$$$
